tested on: INS1; assay: beta cell apoptosis inhibitors, cytokine rescue, dose response, luminescence, retest (AID 449756); format: functional, cell-based; conditions: Rattus norvegicus;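 further: cell death triggered by IL-1 beta plus TNF-alpha plus IFN-gamma mixture; protective hits raise ATP signal compared with cytokine alone wells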
Active and inactive are the calls of the source.
Property: AC50; scope: individual compounds

CCS(=O)(=O)c1ccc(OC)c(N=Nc2ccc(O)c3ncccc23)c1 ... 8.44 µM (active)
CCOC(=O)/C(=C\c1ccc([N+](=O)[O-])cc1)C(=O)c1cc(C(C)=O)c(Nc2ccccc2)s1 ... 1.94 µM (active)
COCCCNC(=O)Cn1nnc(-c2ccc(NC(=O)c3cccnc3)cc2)n1 ... 3.95 µM (active)
CSc1ccccc1OCc1cc(C(=O)N2CCc3c(Cl)cccc3C2)no1 ... 7.1 µM (active)

Field: next compound
Consider the compound CCc1ccc(S(=O)(=O)/N=C2/C=C(Sc3nc[nH]n3)C(=O)c3ccccc32)cc1 and give its measured AC50. 7.93 µM (active)

----------
biological target: Dual specificity tyrosine-phosphorylation-regulated kinase 1A (Rattus norvegicus, UniProt Q63470); format: biochemical, Homo sapiens
The source made the active and inactive calls.
Property: AC50; scope: individual compounds

CC12CCC(C(=O)Nc3nc4ccc(Br)cc4s3)(OC1=O)C2(C)C (centres undefined) ... 1360 nM (active)
COc1ccc(/C=C/C(=O)O)cc1 [4-METHOXYCINNAMIC ACID] ... 21000 nM (active)

Consider the compound COc1cc(C(=O)Nc2cccc(-c3nncn3C)c2)cc(OC)c1OC and give its measured AC50. 2950 nM (active)

Consider the compound COc1cc(/C=C2\Oc3cc(O)ccc3C2=O)ccc1O and give its measured AC50. 641 nM (active)

----------
target: Paired box protein Pax-8 (Homo sapiens, UniProt Q06710); experiment: inhibitors of PAX8-driven TPO luciferase reporter, dose response, RMG-I cells, cherry-pick (AID 687027); format: functional, cell-based;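 further: luciferase reporter driven by Pax8 target thyroperoxidase promoter measured by SteadyGlo luminescence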
Sequence (Q06710 whole entry): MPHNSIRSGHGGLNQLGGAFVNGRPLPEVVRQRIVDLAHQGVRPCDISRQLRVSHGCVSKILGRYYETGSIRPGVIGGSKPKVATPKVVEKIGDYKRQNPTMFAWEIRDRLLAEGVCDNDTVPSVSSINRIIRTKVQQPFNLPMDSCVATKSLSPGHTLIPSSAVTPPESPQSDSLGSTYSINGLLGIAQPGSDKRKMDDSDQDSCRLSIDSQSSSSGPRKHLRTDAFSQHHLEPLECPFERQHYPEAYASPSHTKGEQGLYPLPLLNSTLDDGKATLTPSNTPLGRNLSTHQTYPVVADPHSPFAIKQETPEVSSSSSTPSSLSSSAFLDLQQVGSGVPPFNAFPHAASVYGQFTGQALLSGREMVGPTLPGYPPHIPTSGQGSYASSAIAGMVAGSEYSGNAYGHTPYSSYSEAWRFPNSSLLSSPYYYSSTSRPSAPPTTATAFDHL
The source made the active and inactive calls.
Property: AC50; scope: individual compounds

Worked cases, answers included:
CC1CCCC=CC2CC(OC(=O)CN(C)C)CC2C(O)C=CC(=O)O1 (stereo unspecified) ... < 0.26 µM (active)
COc1cccc(C(c2nnnn2-c2ccc3c(c2)OCCO3)N2CCC(n3c(O)nc4ccccc43)CC2)c1OC (stereo unspecified) ... 1.52 µM (active)
C[C@@H]1CN([C@@H](C)CO)C(=O)Cc2cc(NC(=O)NC3CCCCC3)ccc2O[C@@H]1CN(C)Cc1ccc(-c2ccccc2)cc1 ... 30.6 µM (active)
CCN(CC)S(=O)(=O)c1cccc(NC(=O)Nc2cccc(C(F)(F)F)c2)c1 ... 14.9 µM (active)
C[C@@H]1CN([C@@H](C)CO)C(=O)c2cc(NS(=O)(=O)c3ccc(F)cc3)ccc2O[C@@H](C)CCCCO[C@@H]1CN(C)Cc1ccc(C(F)(F)F)cc1 ... 8.92 µM (active)

Field: next compound
Consider the compound COc1cccc(NC(=O)Nc2nc(-c3ccc(OC)c(OC)c3)cs2)c1 and give its measured AC50. 7.88 µM (active)

----------
target: Cytochrome P450 2C19 (Homo sapiens, UniProt P33261); test: Cytochrome panel assay with activity outcomes. Panel member name: p450-cyp2c19 Compounds with AC50 equal or less than 10 uM are considered active; type: functional; conditions: read-out: AC50
Sequence (P33261 whole entry): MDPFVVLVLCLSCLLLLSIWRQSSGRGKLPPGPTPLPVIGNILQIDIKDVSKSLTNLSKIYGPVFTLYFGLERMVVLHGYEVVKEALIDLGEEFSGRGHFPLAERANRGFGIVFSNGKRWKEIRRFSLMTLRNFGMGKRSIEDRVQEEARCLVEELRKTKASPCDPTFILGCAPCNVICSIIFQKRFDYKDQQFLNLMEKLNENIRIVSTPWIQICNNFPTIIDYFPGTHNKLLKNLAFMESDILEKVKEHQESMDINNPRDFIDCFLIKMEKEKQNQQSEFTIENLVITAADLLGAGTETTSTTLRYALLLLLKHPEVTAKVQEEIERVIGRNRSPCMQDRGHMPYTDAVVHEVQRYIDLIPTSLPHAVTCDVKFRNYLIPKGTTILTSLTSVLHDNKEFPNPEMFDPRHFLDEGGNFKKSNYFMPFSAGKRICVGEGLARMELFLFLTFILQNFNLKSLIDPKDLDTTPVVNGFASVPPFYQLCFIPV
Property: AC50; scope: individual compounds

Worked cases, answers included:
CCO/C(O)=C(/C=N/c1ccccc1)[N+](=O)[O-] ... 14.1 µM (inconclusive)
CN1CCN(C(=O)c2ccc(-n3cccc3)cc2)CC1 ... 25.1 µM (inconclusive)

Field: next compound
Consider the compound CCN(CC(=O)Nc1ccc2c(c1)OCCO2)C(=O)c1cccc(S(=O)(=O)N2CCOCC2)c1 and give its measured AC50. 22.4 µM (inconclusive)

----------
assay: Luminescence Cell-Based Dose Retest to Confirm Inhibitors of Cancer Stem Cells. [Related pubchem assays (depositor defined):AID2717, AID2721]; format: functional; conditions: Homo sapiens
The source made the active and inactive calls.
Property: AC50; scope: individual molecules

Worked cases, answers included:
Cc1cccc(OCc2n(C)c3ccccc3[n+]2CC(=O)OC2CC(C)CCC2C(C)C)c1 (stereo not given) ... 3.49 µM (active)
Cc1cc(Nc2nc(Cl)c(Cl)cc2Cl)n(-c2ccccc2)n1 ... 3.95 µM (active)
O=C(O)c1ccc(Cl)c(S(=O)(=O)N(Cc2ccccc2)c2ccc(F)cc2)c1 ... 31.2 µM (active)
CC(=O)Oc1ccc2c(=O)c(-c3nc4ccccc4s3)coc2c1 ... 6.27 µM (active)

Field: next molecule
Consider the molecule Cc1nn(-c2nc3ccccc3s2)c(C)c1Oc1ccccc1O and give its measured AC50. 5.5 µM (active)

----------
molecular target: Cytochrome P450 2C9 (Homo sapiens)
Sequence (P11712 whole entry): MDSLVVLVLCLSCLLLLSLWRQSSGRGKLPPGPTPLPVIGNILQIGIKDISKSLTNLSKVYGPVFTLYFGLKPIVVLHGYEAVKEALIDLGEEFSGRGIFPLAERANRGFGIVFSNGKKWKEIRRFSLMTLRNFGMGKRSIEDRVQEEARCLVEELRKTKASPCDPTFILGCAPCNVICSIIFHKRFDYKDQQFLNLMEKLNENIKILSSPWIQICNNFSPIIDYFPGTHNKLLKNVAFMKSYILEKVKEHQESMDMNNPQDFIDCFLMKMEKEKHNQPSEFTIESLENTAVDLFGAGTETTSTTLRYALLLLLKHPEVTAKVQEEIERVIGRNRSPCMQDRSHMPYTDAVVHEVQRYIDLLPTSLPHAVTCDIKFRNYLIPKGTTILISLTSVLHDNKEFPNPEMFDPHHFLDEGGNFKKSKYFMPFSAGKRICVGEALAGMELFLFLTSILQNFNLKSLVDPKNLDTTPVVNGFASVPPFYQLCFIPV
measurement.kind: AC50

Worked cases, answers included:
Cc1ccnc(N2C(=O)C3C4CC(C(Br)C4Br)C3C2=O)c1 (stereo unspecified) ... 17.8 µM (inconclusive)
C[C@@H]1CC[C@H]2C(=O)O[C@H](CN=[N+]=[N-])CN2[C@@H]1c1ccc(Br)cc1 ... 3.16 µM (inconclusive)
COc1ccc(Oc2ncc3nc(C)c(=O)n(-c4ccccc4)c3n2)cc1 ... 10 µM (inconclusive)
CCC(CC)C(=O)/N=c1\c2cnn(-c3ccccc3)c2[nH]c(=O)n1-c1ccccc1 ... 28.2 µM (inconclusive)
COC(=O)/C=C/CSC1=N/C(=C/c2ccc(-n3cncn3)cc2)C(=O)N1 ... 11.2 µM (inconclusive)

Field: next compound
Return AC50 measured with Cytochrome P450 2C9 (Homo sapiens) given this compound: CC(=O)Nc1ccc(OCC(O)Cn2cnc3ccccc32)cc1 (stereo unspecified) 0.0631 µM (inconclusive)

----------
molecular target: UniProt:P38532; assay: inhibition of MG132-induced HSE-luciferase signal, confirmation, cell-based, NIH3T3, luminescence, dose retest (AID 2382); format: functional;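 further: NIH3T3 fibroblasts with HSF1-driven luciferase reporter stressed by proteasome inhibitor MG132; luminescence from HSF1-driven luciferase expression after 8 hours of MG132 stress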
Sequence (P38532 whole entry): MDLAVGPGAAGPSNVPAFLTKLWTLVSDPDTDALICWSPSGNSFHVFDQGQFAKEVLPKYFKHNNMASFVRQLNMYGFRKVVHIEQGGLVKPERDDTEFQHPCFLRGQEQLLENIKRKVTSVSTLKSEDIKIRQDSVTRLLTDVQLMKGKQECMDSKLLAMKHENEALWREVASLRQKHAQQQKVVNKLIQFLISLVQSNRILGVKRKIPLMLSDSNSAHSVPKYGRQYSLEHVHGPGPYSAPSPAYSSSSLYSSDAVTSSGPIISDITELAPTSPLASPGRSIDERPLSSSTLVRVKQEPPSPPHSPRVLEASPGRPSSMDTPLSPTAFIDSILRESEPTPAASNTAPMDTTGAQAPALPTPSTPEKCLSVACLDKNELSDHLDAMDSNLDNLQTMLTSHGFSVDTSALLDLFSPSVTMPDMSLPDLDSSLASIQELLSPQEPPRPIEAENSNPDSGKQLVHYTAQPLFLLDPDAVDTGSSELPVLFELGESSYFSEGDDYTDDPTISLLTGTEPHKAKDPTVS
The source made the active and inactive calls.
measurement.kind: EC50

Cc1ccc(NC2=C/C(=N\S(=O)(=O)c3cccs3)c3ccccc3C2=O)c(C)c1 ... 1.56 µM (active)
CC(=O)c1cccc(NC(=O)C2CC(=O)N(CCc3ccccc3)C2)c1 (stereo not given) ... > 195 µM (not active)
COc1ccc([C@@H]2C[C@@H](c3ccccc3)Oc3c(C)ccc(C(C)C)c32)cc1 ... > 195 µM (not active)

Consider the compound CCOC(=O)/C(=C\c1ccc([N+](=O)[O-])cc1)C(=O)c1cc(C(C)=O)c(Nc2ccccc2)s1 and give its measured EC50. 3.16 µM (inconclusive)

Consider the compound CC(C)Oc1cccc(C(=O)NC(=S)Nc2ccccc2)c1 and give its measured EC50. > 195 µM (not active)

Consider the compound COc1cc(C(=O)N2CCN(C(=O)CC(C)C)CC2)cc(OC)c1OC and give its measured EC50. 9.31 µM (active)

Consider the compound CCCCOc1cccc(C(=O)Nc2ccc(NC(=O)c3cccs3)cc2)c1 and give its measured EC50. 9.51 µM (active)

----------
target: Induced myeloid leukemia cell differentiation protein Mcl-1 (Homo sapiens, UniProt Q07820); assay type: functional
Sequence (Q07820 whole entry): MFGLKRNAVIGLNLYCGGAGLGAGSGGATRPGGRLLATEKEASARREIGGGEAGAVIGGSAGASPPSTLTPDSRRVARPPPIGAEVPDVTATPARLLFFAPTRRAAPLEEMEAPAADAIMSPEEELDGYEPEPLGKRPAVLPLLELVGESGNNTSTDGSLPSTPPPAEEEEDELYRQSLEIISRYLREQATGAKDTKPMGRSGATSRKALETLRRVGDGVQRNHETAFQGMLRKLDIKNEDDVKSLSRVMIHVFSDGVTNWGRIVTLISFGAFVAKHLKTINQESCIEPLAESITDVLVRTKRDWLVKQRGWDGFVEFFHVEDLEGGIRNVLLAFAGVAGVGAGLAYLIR
Calls of active or inactive are those of the source.
measurement.kind: IC50

O=C(/C=C/c1ccccc1)c1ccc(NC2=NCCCS2)cc1 ... 8.3 µM (active)

Consider the compound CC(=O)N(C1=C(Cl)C(=O)c2ccccc2C1=O)C1CCCCC1 and give its measured IC50. 14.5 µM (active)

Consider the compound CCc1ccc(S(=O)(=O)/N=C2/C=C(Sc3nc[nH]n3)C(=O)c3ccccc32)cc1 and give its measured IC50. 5.9 µM (active)

Consider the compound Cc1ccc(-c2c3c([nH]c(=S)c2C#N)CCCC3)o1 and give its measured IC50. 2.4 µM (active)

----------
Property: IC50; scope: individual compounds
target: High affinity choline transporter 1 (Homo sapiens); experiment: CHT inhibitors, dose response, cell-based, 5-point CRC, membrane potential dye (AID 504840); type: functional
Sequence (Q9GZV3 whole entry): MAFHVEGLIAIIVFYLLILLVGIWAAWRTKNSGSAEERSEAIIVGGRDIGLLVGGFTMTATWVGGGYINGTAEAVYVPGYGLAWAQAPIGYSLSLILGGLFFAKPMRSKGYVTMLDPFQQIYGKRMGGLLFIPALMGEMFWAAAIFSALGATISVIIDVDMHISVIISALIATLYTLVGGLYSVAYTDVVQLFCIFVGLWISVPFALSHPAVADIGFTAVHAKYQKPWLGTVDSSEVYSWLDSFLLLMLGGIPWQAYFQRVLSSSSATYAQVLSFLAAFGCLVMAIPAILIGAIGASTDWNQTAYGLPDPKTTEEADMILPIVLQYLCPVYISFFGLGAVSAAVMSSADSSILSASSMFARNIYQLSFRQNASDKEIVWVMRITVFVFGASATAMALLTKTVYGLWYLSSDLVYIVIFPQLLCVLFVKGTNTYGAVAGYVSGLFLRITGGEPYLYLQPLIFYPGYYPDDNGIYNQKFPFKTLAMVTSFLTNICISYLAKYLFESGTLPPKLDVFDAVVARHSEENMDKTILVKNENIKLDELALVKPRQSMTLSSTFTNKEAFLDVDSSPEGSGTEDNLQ
Active and inactive are the calls of the source.

CN(C)CCn1c(=S)[nH]c2ccccc2c1=O ... 13.2 µM (active)

Consider the compound O=C(Nc1ccc(S(=O)(=O)Nc2ccccn2)cc1)c1ccc(Cl)cc1Cl and give its measured IC50. 4.17 µM (active)

Consider the compound CC(/C=C1\SC(=O)N(CCCC(=O)O)C1=O)=C\c1ccccc1 and give its measured IC50. 12.6 µM (active)

Consider the compound Cn1c2c(c(=O)c3ccccc31)CCCC2 and give its measured IC50. 6.99 µM (active)

----------
Property: EC50; scope: individual compounds
molecular target: Streptokinase A (Streptococcus pyogenes serotype M1, UniProt P10520); test: S. pyogenes streptokinase expression inhibitors, potency, dose response, plasminogen activation absorbance, OD405 (AID 1914); format: functional, Streptococcus pyogenes M1 GAS;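 further: secreted streptokinase activity via plasminogen activation per viability signal from cell pellet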
Sequence (P10520 whole entry): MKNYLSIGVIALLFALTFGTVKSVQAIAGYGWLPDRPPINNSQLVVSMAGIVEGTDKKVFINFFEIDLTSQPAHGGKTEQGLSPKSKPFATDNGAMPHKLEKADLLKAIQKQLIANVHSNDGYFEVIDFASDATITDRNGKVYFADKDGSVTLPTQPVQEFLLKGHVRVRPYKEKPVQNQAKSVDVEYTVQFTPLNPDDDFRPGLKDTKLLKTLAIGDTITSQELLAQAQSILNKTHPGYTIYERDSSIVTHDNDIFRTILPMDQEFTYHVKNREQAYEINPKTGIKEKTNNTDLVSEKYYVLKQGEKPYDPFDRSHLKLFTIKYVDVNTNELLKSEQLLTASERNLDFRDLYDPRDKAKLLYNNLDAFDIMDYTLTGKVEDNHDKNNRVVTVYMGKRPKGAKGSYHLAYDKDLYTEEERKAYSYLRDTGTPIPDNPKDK
The source made the active and inactive calls.

Worked cases, answers included:
CC(C)(C)c1ccc2c(c1)OC(C(=O)N/N=C/c1ccc([N+](=O)[O-])o1)CO2 (stereo not drawn) ... 5.82 µM (active)
Fc1ccc(CO/N=C/C2=C(Cl)c3ccccc3CC2)cc1 ... 13.5 µM (active)
Oc1c(N=NC(S)=Nc2ccccc2F)c2ccccc2n1Cc1ccc(F)cc1 ... 0.607 µM (inconclusive)
CC(=O)N(C1=C(Cl)C(=O)c2ccccc2C1=O)C1CCCCC1 ... > 150 µM (not active)
Cc1ccc(NC(=O)NCc2ccccn2)cc1Cl ... > 150 µM (not active)
CC(C)(CNC(=O)c1ccccc1)CNC1=NS(=O)(=O)c2ccccc21 ... > 150 µM (not active)
N#C/C(=C(/O)COc1ccccc1)c1nc2ccccc2s1 ... 7.55 µM (active)

Consider the compound Cc1cc(C)c(C)c(S(=O)(=O)N2CCC(C(=O)NNC(=O)c3ccccc3O)CC2)c1C and give its measured EC50. > 150 µM (not active)
